System: SK-MEL-28 melanoma
assayComment: NCI tumour cell line growth inhibition, 48 h
metric: TGI

| molecule | metric | result |
| --- | --- | --- |
| COc1ccc2c(c1)c(-c1ccc(-c3cn(C)c4ccc(OC)cc34)o1)cn2C | TGI | 80.1 µM |
| COc1ccc(C(=O)N(Cc2cccnc2)C(=S)N(Cc2cccnc2)C(=O)c2ccc(OC)cc2)cc1 | TGI | > 100 µM |
| CCCCSC1=N/C(=C\c2ccc(N(C)C)cc2)C(Cl)=N1 | TGI | > 100 µM |
| Cc1nn(C(=O)c2ccncc2)c2c1C(c1ccc([N+](=O)[O-])cc1)SC(N)=N2 (stereo not given) | TGI | > 100 µM |
| CC(C)Cc1ccc(C(C)/C=C2\CCC(CN3CCCCC3)C2=O)cc1 (stereo not given) | TGI | 11 µM |
